Data provenance is ChEMBL document CHEMBL5058577.

Tested on: HEK-293T
ASSAY_METHOD_TEXT: Multiplex assay against HEK293T
Format: toxicity, cell-based
EXPERIMENTAL_SETUP: human, 48 h, 10 µM, compound concentration 10 uM, replicate 1
PARAMETER: Population Healthy Nuclei (%)

>>> result("CN(C)C(=O)Cn1cc(-c2ccc(-c3nnc4ccccn34)cc2)cn1")
74
>>> result("CN1C[C@H](C(=O)N[C@]2(C)O[C@@]3(O)[C@@H]4CCCN4C(=O)[C@H](Cc4ccccc4)N3C2=O)C[C@@H]2c3cccc4[nH]cc(c34)C[C@H]21.CS(=O)(=O)O [DIHYDROERGOTAMINE MESYLATE]")
76
>>> result("S=C(NCCCc1c[nH]cn1)NCCCN(Cc1ccc(Cl)c(Cl)c1)c1ccc(Br)cn1")
23
>>> result("Nc1nc(CC(=O)Nc2ccc(CCNC[C@H](O)c3ccccc3)cc2)cs1 [MIRABEGRON]")
78
>>> result("CN1CCC(C(=O)c2cccc(NC(=O)c3c(F)cc(F)cc3F)n2)CC1")
79
>>> result("CC(C)C[C@H](CO)Nc1nc(S[C@@H](C)c2ccccc2)nc2nc(N)sc12 [AZD-8797]")
72

---

Test system: HEK-293T
ASSAY_METHOD_TEXT: Multiplex assay against HEK293T
Format: toxicity, cell-based
EXPERIMENTAL_SETUP: human, 24 h, 10 µM, compound concentration 10 uM, replicate 1
Population Apoptotic (%) values for the compounds below.
PARAMETER: Population Apoptotic (%)

>>> result("CCn1c(-c2nc3cc(C(=O)N4CCCC(N)C4)ccc3n2C)cc2ccccc21.Cl (centres undefined)")
"51%"
>>> result("Cc1cc(O)c(-c2ccc([C@@H](C)CN(C)C)cc2)c2c1[nH]c(=O)c1sccc12")
"73%"
>>> result("Cc1nn(C)c2nc(NNC(=O)Nc3cc(Cl)nc(Cl)c3)cc(C(C)C)c12")
"59%"
>>> result("CN1CCN(c2ccc(Nc3c4ccccc4nc4ccccc34)cc2)CC1.Cl.Cl.O")
"100%"
>>> result("O=c1ccc2ccc(OCCCCN3CCN(c4cccc5sccc45)CC3)cc2[nH]1")
"91%"
>>> result("COc1cc(Nc2ncc3c(n2)-c2ccc(Cl)cc2C(c2c(F)cccc2OC)=NC3)ccc1C(=O)O")
"54%"
>>> result("CCCCCCNC(=O)Nc1ccc(S(=O)(=O)Nc2ccc(CCNC[C@H](O)COc3ccc(O)cc3)cc2)cc1")
"26%"
>>> result("Cc1cc(=O)n(C)c2cc(N3C(=O)CC[C@H](NS(=O)(=O)CC(C)C)[C@H]3c3ccc(Cl)cc3)ccc12")
"34%"
>>> result("N[C@](CC1c2ccccc2Oc2ccccc21)(C(=O)O)[C@H]1C[C@@H]1C(=O)O")
"29%"

---

Test system: Fibroblast
ASSAY_METHOD_TEXT: Multiplex assay against human fibroblast
Type: toxicity, cell-based
EXPERIMENTAL_SETUP: 12 h, 1 µM, compound concentration 1 uM, replicate 2
PARAMETER: Population Tubulin-Different-Phenotype (%)

>>> result("C[C@H](NC(=O)CNC(=O)c1cccc(Cl)c1)c1ccccc1")
41
>>> result("COc1cc(Nc2ncc3c(n2)-c2ccc(Cl)cc2C(c2c(F)cccc2OC)=NC3)ccc1C(=O)O")
41
>>> result("COCCCN1CCC(NC(=O)c2cc(Cl)c(N)c3c2OCC3)CC1 [PRUCALOPRIDE]")
51

---

Tested on: HEK-293T
ASSAY_METHOD_TEXT: Multiplex assay against HEK293T
Assay type: toxicity, cell-based
EXPERIMENTAL_SETUP: human, 48 h, 10 µM, compound concentration 10 uM, replicate 1
PARAMETER: Population Hoechst High Intensity Objects (%)

>>> result("CC(C)(O)C(=O)N1CCN(c2ccc(C(F)(F)F)c(C3=C(c4c[nH]c5ccccc45)C(=O)NC3=O)c2)CC1")
8
>>> result("COc1cc2nc(N3CCN(C(=O)COc4c(OC)cccc4C(C)C)CC3)nc(N)c2cc1OC.Cl.Cl")
41
>>> result("COCCCN1CCC(NC(=O)c2cc(Cl)c(N)c3c2OCC3)CC1 [PRUCALOPRIDE]")
1
>>> result("Cc1c(Cc2ccc3ccccc3n2)c2cc(F)ccc2n1CC(=O)O")
4
>>> result("C[C@H](NC(=O)CNC(=O)c1cccc(Cl)c1)c1ccccc1")
1
>>> result("Cc1ccc(OCC(O)C(C)NC(C)C)c2c1CCC2.Cl (configuration not stated)")
5
>>> result("CN1CCN2c3ccccc3Cc3ccccc3C2C1.Cl (configuration not stated) [MIANSERIN HYDROCHLORIDE]")
2

---

Population Normal (%) values for the molecules below.
Tested on: HEK-293T
ASSAY_METHOD_TEXT: Multiplex assay against HEK293T
Type: toxicity, cell-based
EXPERIMENTAL_SETUP: human, 24 h, 10 µM, compound concentration 10 uM, replicate 1
Non-standard residues stand in square brackets, D forms with d. Residues, ends and D or L forms follow the SMILES beside them.
PARAMETER: Population Normal (%)

>>> result("Cc1ccc(OCC(O)C(C)NC(C)C)c2c1CCC2.Cl (stereo not given)")
94
>>> result("CC(F)(F)CN1CCOc2c(nn(-c3ccccc3Cl)c2-c2ccc(Cl)cc2)C1=O")
92
>>> result("CN1CCN(c2ccc(Nc3c4ccccc4nc4ccccc34)cc2)CC1.Cl.Cl.O")
97
>>> result("CSc1nc(NC2CCCC2)c([N+](=O)[O-])c(NC2CCCC2)n1")
94
>>> result("CCc1nn2c(C)cc(C)nc2c1Cc1ccc(-c2nnc(C3CCNCC3)o2)cc1")
94
>>> result("N[C@](CC1c2ccccc2Oc2ccccc21)(C(=O)O)[C@H]1C[C@@H]1C(=O)O")
94
>>> result("COc1ccc2[nH]c(I)c(CCNC(C)=O)c2c1")
94
>>> result("Nc1nc(CC(=O)Nc2ccc(CCNC[C@H](O)c3ccccc3)cc2)cs1")
95
>>> result("COCCn1c(C)c(C)s/c1=N\\C(=O)C1C(C)(C)C1(C)C")
84
>>> result("O=C(O)CCC/C=C\\CC1C(O)CC(O)C1/C=C/C(O)COc1cccc(Cl)c1 (stereo not given)")
92
>>> result("CC(C)(O)C(=O)N1CCN(c2ccc(C(F)(F)F)c(C3=C(c4c[nH]c5ccccc45)C(=O)NC3=O)c2)CC1")
95
>>> result("COc1ccc2c(c1OCc1ccccc1)C[C@@H](C(=O)O)N(C(=O)C(c1ccccc1)c1ccccc1)C2")
93
>>> result("CN1CCC(C(=O)c2cccc(NC(=O)c3c(F)cc(F)cc3F)n2)CC1")
93
>>> result("CC(C)C[C@@H]1NC(=O)[C@@H](C(C)C)NC(=O)[C@@H]2CCCN2C(=O)[C@@H](CC(=O)O)NC(=O)[C@@H](Cc2c[nH]c3ccccc23)NC1=O [BQ-123] (cyclo(L[dW][dD]P[dV]))")
93
>>> result("CN1C[C@H](C(=O)N[C@]2(C)O[C@@]3(O)[C@@H]4CCCN4C(=O)[C@H](Cc4ccccc4)N3C2=O)C[C@@H]2c3cccc4[nH]cc(c34)C[C@H]21.CS(=O)(=O)O [DIHYDROERGOTAMINE MESYLATE]")
94
>>> result("C[C@@H]1CC(=O)Nc2cccc(-c3ccc4c(c3)c(-c3cnn(C)c3)nn4C)c2N1")
97
>>> result("COc1cc2nc(N3CCN(C(=O)COc4c(OC)cccc4C(C)C)CC3)nc(N)c2cc1OC.Cl.Cl")
70
>>> result("O=c1nc2[nH]c3ccccc3nc-2c(=O)[nH]1")
93
>>> result("CN(C)C(=O)Cn1cc(-c2ccc(-c3nnc4ccccn34)cc2)cn1")
95
>>> result("CC(C)C[C@H](CO)Nc1nc(S[C@@H](C)c2ccccc2)nc2nc(N)sc12")
90
>>> result("Cn1cc(C(=O)OCC2CCN(CCNS(C)(=O)=O)CC2)c2ccccc21")
94
>>> result("COc1cc2nc(N3CCN(C(=O)c4ccco4)CC3)nc(N)c2cc1OC.Cl [PRAZOSIN HYDROCHLORIDE]")
94
>>> result("C[C@H](NC(=O)CNC(=O)c1cccc(Cl)c1)c1ccccc1")
95
>>> result("Cl.Cl.OCCOCCN1CCN(C(c2ccccc2)c2ccc(Cl)cc2)CC1 (stereo not given) [HYDROXYZINE HYDROCHLORIDE]")
91
>>> result("CN(C)C/C=C/C(=O)Nc1ccc(C(=O)N2CCCC(Nc3ncc(Cl)c(-c4c[nH]c5ccccc45)n3)C2)cc1 (stereo not given)")
50
>>> result("CN1CCN2c3ccccc3Cc3ccccc3C2C1.Cl (stereo not given) [MIANSERIN HYDROCHLORIDE]")
94
>>> result("C=CCN1C[C@H](C(=O)N(CCCN(C)C)C(=O)NCC)C[C@@H]2c3cccc4[nH]cc(c34)C[C@H]21")
91
>>> result("Cc1cc(O)c(-c2ccc([C@@H](C)CN(C)C)cc2)c2c1[nH]c(=O)c1sccc12")
63
>>> result("Cc1sc2c(c1C)C(c1ccc(Cl)cc1)=N[C@H](CC(=O)OC(C)(C)C)c1nnc(C)n1-2")
95
>>> result("Cc1cc(NC(=O)NCCN2CCC(O)(Cc3ccccc3)CC2)c2ccccc2n1")
95
